Provenance of the data: ChEMBL document CHEMBL4184320

assay.remarks: Thermodynamic solubility of the compound at pH 4 to 7.4 pION buffer after 18 hrs by UV spectrophotometric analysis
Assay type: physicochemical
experimental.parameters: read-out: Therm_solubility
property.label: solubility thermodynamic at 18 h

What the record says about `CN(C)C1CCN(C(=O)c2ccc(-c3ccc4ncc(-c5ccc(C#N)cc5)n4n3)cc2)CC1` : solubility thermodynamic at 18 h is 148 µg/mL

Query `N#Cc1ccc(-c2cnc3cnc(-c4ccc(C(=O)N5CCOCC5)cc4)cn23)cc1` yields solubility thermodynamic at 18 h of 11.1 µg/mL

Form field solubility thermodynamic at 18 h, entry `N#Cc1ccc(-c2cnc3ccc(-c4ccc(C(=O)N5CCOCC5)cc4)cn23)cc1` : 55.4 µg/mL

Entry `CN(C)C1CCN(C(=O)c2ccc(-c3cn4c(-c5ccc(C#N)cc5)cnc4cn3)cc2)CC1` , solubility thermodynamic at 18 h reported as > 45 µg/mL

What the record says about `CN1CCN(C(=O)c2ccc(-c3ccc4ncc(-c5ccc(C#N)cc5)n4n3)cc2)CC1` : solubility thermodynamic at 18 h is 86 µg/mL

molecule `CN1CCN(C(=O)c2ccc(-c3cn4c(-c5ccc(O)cc5)cnc4cn3)cc2)CC1` , solubility thermodynamic at 18 h observed: 114 µg/mL

Measured solubility thermodynamic at 18 h of `CN1CCN(C(=O)c2ccc(-c3cn4c(-c5cccc(O)c5)cnc4cn3)cc2)CC1` : 116 µg/mL

// recorded solubility thermodynamic at 18 h for `N#Cc1ccc(-c2cnc3ccc(-c4ccc(C(=O)N5CCOCC5)cc4)nn23)cc1` : 1.8 µg/mL

Briefly, solubility thermodynamic at 18 h measured for `CN1CCN(C(=O)c2ccc(-c3cn4c(-c5ccc(Cl)cc5)cnc4cn3)cc2)CC1` : 118 µg/mL

* * *

What half-life at 1 µM was measured for each of the following?
assay.remarks: in vitro
experimental.parameters: human, liver microsomes
Description: Half life in human liver microsomes at 1 uM in presence of NADPH by LC-MS/MS analysis
Value expressed in min; do not type the unit.

// half-life at 1 µM lookup, compound = `CN1CCN(C(=O)c2ccc(-c3cn4c(-c5ccc(C#N)cc5)cnc4cn3)cc2)CC1` , result: 41

Record summary for `N#Cc1ccc(-c2cnc3ccc(-c4ccc(C(=O)N5CCOCC5)cc4)cn23)cc1` : reported half-life at 1 µM = 48

Per the records, this compound ( `CN(C)C1CCN(C(=O)c2ccc(-c3ccc4ncc(-c5ccc(C#N)cc5)n4n3)cc2)CC1` ) has half-life at 1 µM equal to 47

* * *

Please provide measured fraction unbound at 5 h for the entries that follow.
assay.remarks: Protein binding in mouse plasma at […] after 5 hrs by LC-MS/MS analysis
Assay type: ADME, cell-free
experimental.parameters: read-out: PPB (converted)
Number only, please.

For reference, reported fraction unbound at 5 h for `CN1CCN(C(=O)c2ccc(-c3ccc4ncc(-c5ccc(C#N)cc5)n4n3)cc2)CC1` stands at 0.041

# fraction unbound at 5 h (compound: `CN1CCN(C(=O)c2ccc(-c3ccc4ncc(-c5ccc(C#N)cc5)n4c3)cc2)CC1` ) is 0.0967

Summary for this compound, `N#Cc1ccc(-c2cnc3ccc(-c4ccc(C(=O)N5CCOCC5)cc4)nn23)cc1` : fraction unbound at 5 h is 0.055

fraction unbound at 5 h in this record for `CN1CCN(C(=O)c2ccc(-c3cn4c(-c5ccc(C#N)cc5)cnc4cn3)cc2)CC1` : 0.129

Just so you know, measured fraction unbound at 5 h for N#Cc1ccc(-c2cnc3ccc(-c4ccc(C(=O)N5CCOCC5)cc4)cn23)cc1 [TINODASERTIB] came out at 0.158

* * *

experimental.system: MAP kinase-interacting serine/threonine-protein kinase 1/2 (Homo sapiens, UniProt Q9HBH9+Q9BUB5)
assay.remarks: Inhibition of MNK1/2 in human HeLa cells assessed as decrease in eIF4E phosphorylation at Ser209 after 2 hrs by AlphaScreen assay
Type: cell-based
For each entry below, report its IC50 value.
A number alone suffices; assume nM.

Per the records, this molecule ( `Oc1ccc(-c2cnc3cnc(-c4ccccc4)cn23)cc1` ) has IC50 equal to 819

The molecule listed as `CN(C)C1CCN(C(=O)c2ccc(-c3ccc4ncc(-c5ccc(C#N)cc5)n4n3)cc2)CC1` shows IC50 equal to 431

// recorded IC50 for `CN1CCN(C(=O)c2ccc(-c3ccc4ncc(-c5ccc(C#N)cc5)n4c3)cc2)CC1` : 229

* * *

assay.remarks: in vitro
experimental.parameters: human, liver microsomes
property.label: half-life at 1 µM (min)
Numeric only. Scale: min

Lookup result for `N#Cc1ccc(-c2cnc3ccc(-c4ccc(C(=O)N5CCOCC5)cc4)nn23)cc1` ; measured half-life at 1 µM: 53

The measured half-life at 1 µM associated with `CN1CCN(C(=O)c2ccc(-c3ccc4ncc(-c5ccc(C#N)cc5)n4c3)cc2)CC1` reads 20

The recorded half-life at 1 µM for entry `NC(=O)c1ccc(-c2cn3c(-c4ccc(O)cc4)cnc3cn2)cc1` equals 60

The value of half-life at 1 µM measured for the compound `CN1CCN(C(=O)c2ccc(-c3ccc4ncc(-c5ccc(C#N)cc5)n4n3)cc2)CC1` turned out to be 17

* * *

assay.remarks: Permeability of the compound by PAMPA
Type: ADME
experimental.parameters: read-out: permeability
Please go through the items and note down their Papp.
Write the answer as a number in ×10⁻⁶ cm/s, unit excluded.

Measured Papp, `NC(=O)c1ccc(-c2cn3c(-c4ccc(O)cc4)cnc3cn2)cc1` : 22.7

Sample `N#Cc1ccc(-c2cnc3ccc(-c4ccc(C(=O)N5CCNCC5)cc4)nn23)cc1` ; Papp observed: 45.8

Papp reading for `CN(C)C1CCN(C(=O)c2ccc(-c3cn4c(-c5ccc(C#N)cc5)cnc4cn3)cc2)CC1` : 64.7

Record `CN1CCN(C(=O)c2ccc(-c3cn4c(-c5ccc(C(N)=O)cc5)cnc4cn3)cc2)CC1` . Reported Papp: 1.78

Papp measured on `CN1CCN(C(=O)c2ccc(-c3ccc4ncc(-c5ccc(C#N)cc5)n4n3)cc2)CC1` = 25

Entry `CN1CCN(C(=O)c2ccc(-c3cn4c(-c5ccc(C(F)F)cc5)cnc4cn3)cc2)CC1` , Papp reported as 76.2

Entry `CN1CCN(C(=O)c2ccc(-c3cn4c(-c5ccc(C(F)(F)F)cc5)cnc4cn3)cc2)CC1` ; Papp = 87.4

For record `N#Cc1ccc(-c2cnc3ccc(-c4ccc(C(=O)N5CCOCC5)cc4)nn23)cc1` the listed Papp is 30

The recorded Papp for `CN1CCN(C(=O)c2ccc(-c3cn4c(-c5cccc(O)c5)cnc4cn3)cc2)CC1` is 33.2

Sample `CN1CCN(C(=O)c2ccc(-c3ccc4ncc(-c5ccc(C#N)cc5)n4c3)cc2)CC1` ; Papp observed: 81.9

Per the records, this molecule ( `CN1CCN(C(=O)c2ccc(-c3cn4c(-c5ccc(Cl)cc5)cnc4cn3)cc2)CC1` ) has Papp equal to 71.3

The molecule `CN(C)C1CCN(C(=O)c2ccc(-c3ccc4ncc(-c5ccc(C#N)cc5)n4n3)cc2)CC1` showed Papp equal to 75.3

Query `CN1CCN(C(=O)c2ccc(-c3cn4c(-c5ccc(C#N)cc5)cnc4cn3)cc2)CC1` yields Papp of 102

Per the record, `N#Cc1ccc(-c2cnc3cnc(-c4ccc(C(=O)N5CCOCC5)cc4)cn23)cc1` has Papp of 43.1

The molecule identified as `CC(=O)N1CCN(C(=O)c2ccc(-c3cn4c(-c5ccc(O)cc5)cnc4cn3)cc2)CC1` registered its Papp at 2.82

Papp measured on `CN1CCN(C(=O)c2ccc(-c3cn4c(-c5ccc(C(=O)O)cc5)cnc4cn3)cc2)CC1` = 0.1

What the record says about `CN1CCN(C(=O)c2ccc(-c3cn4c(-c5ccc(O)cc5)cnc4cn3)cc2)CC1` : Papp is 34.7

Given item N#Cc1ccc(-c2cnc3ccc(-c4ccc(C(=O)N5CCOCC5)cc4)cn23)cc1 [TINODASERTIB] , the value recorded as its Papp is 74.4

Measured Papp, `O=C(c1ccc(-c2cn3c(-c4ccc(O)cc4)cnc3cn2)cc1)N1CCOCC1` : 50.2

* * *

assay.remarks: Oral bioavailability in CD-1 mouse at 5 mg/kg administered via gavage as single dose by LC-MS/MS analysis
Assay type: ADME, organism-based
experimental.parameters: in vivo
property.label: bioavailability
// return the numeric value with its unit appended

Form: compound = `N#Cc1ccc(-c2cnc3ccc(-c4ccc(C(=O)N5CCOCC5)cc4)nn23)cc1` ; bioavailability = 79%

Lab note: `N#Cc1ccc(-c2cnc3ccc(-c4ccc(C(=O)N5CCOCC5)cc4)cn23)cc1` gave bioavailability of 64%

* * *

assay.remarks: Apparent permeability of the compound across apical side to basolateral side in human Caco2 cells by LC-MS/MS analysis
Assay type: ADME, cell-based
experimental.parameters: Caco-2
Label true when Papp A→B is at or above 5 ×10⁻⁶ cm/s; otherwise label false.

Say whether `N#Cc1ccc(-c2cnc3ccc(-c4ccc(C(=O)N5CCOCC5)cc4)cn23)cc1` shows Papp A→B of 5 ×10⁻⁶ cm/s or more.
true

Confirm if Papp A→B reported for the molecule `CN1CCN(C(=O)c2ccc(-c3ccc4ncc(-c5ccc(C#N)cc5)n4c3)cc2)CC1` is 5 ×10⁻⁶ cm/s or above.
true

// inclusive: Papp A→B at least 5 ×10⁻⁶ cm/s? input: `CN(C)C1CCN(C(=O)c2ccc(-c3ccc4ncc(-c5ccc(C#N)cc5)n4n3)cc2)CC1`
false

Answer whether Papp A→B of `N#Cc1ccc(-c2cnc3ccc(-c4ccc(C(=O)N5CCNCC5)cc4)nn23)cc1` is greater than or equal to 5 ×10⁻⁶ cm/s.
false

Assess whether reported Papp A→B for `N#Cc1ccc(-c2cnc3ccc(-c4ccc(C(=O)N5CCOCC5)cc4)nn23)cc1` sits at 5 ×10⁻⁶ cm/s or higher.
true

# check: Papp A→B of `CN(C)C1CCN(C(=O)c2ccc(-c3cn4c(-c5ccc(C#N)cc5)cnc4cn3)cc2)CC1` is greater than or equal to 5 ×10⁻⁶ cm/s
false

Reported Papp A→B at or above 5 ×10⁻⁶ cm/s? `CN1CCN(C(=O)c2ccc(-c3cn4c(-c5ccc(C#N)cc5)cnc4cn3)cc2)CC1`
true

# bool: Papp A→B of `N#Cc1ccc(-c2cnc3cnc(-c4ccc(C(=O)N5CCOCC5)cc4)cn23)cc1` >= 5 ×10⁻⁶ cm/s
true

Decide: Papp A→B of `CN1CCN(C(=O)c2ccc(-c3ccc4ncc(-c5ccc(C#N)cc5)n4n3)cc2)CC1` >= 5 ×10⁻⁶ cm/s?
true
